target: MMP-13 (Homo sapiens, UniProt P45452)
// classify: if (IC50 < 20 nM) label 1 else label 0

INSERT INTO assay_data (query_smiles, class_label) VALUES
  ('CNC(=O)[C@@H](NC(=O)c1ccc(-c2cccc(CNC(=O)c3ccccn3)c2)o1)C1CCCCC1', 'label 1'),
  ('CNC(=O)[C@@H](NC(=O)c1ccc(-c2cccc(CNC(=O)c3ncccc3C)c2)o1)C1CCCCC1', 'label 0'),
  ('CC[C@H](C)[C@H](NC(=O)c1ccc(-c2ccc(Cl)cc2)o1)C(=O)NC', 'label 0'),
  ('CNC(=O)[C@@H](NC(=O)c1ccc(-c2cccc(CNC(=O)c3ccnnc3)c2)o1)C(C)C', 'label 0'),
  ('CNC(=O)[C@@H](NC(=O)c1ccc(-c2ccc(OCc3ccccc3)cn2)o1)C(C)C', 'label 1'),
  ('CNC(=O)[C@@H](NC(=O)c1ccc(-c2ccc(OCc3cc(C)cc(C)c3)cn2)o1)C1CCCCC1', 'label 0'),
  ('CNC(=O)[C@@H](NC(=O)c1ccc(-c2ccc(OCc3ccn(C)n3)cn2)o1)C1CCCCC1', 'label 0'),
  ('CNC(=O)[C@@H](NC(=O)c1ccc(-c2cccc(CNC(=O)c3cccc(C)n3)c2)o1)C1CCCCC1', 'label 1'),
  ('CNC(=O)[C@@H](NC(=O)c1ccc(-c2ccc(OCc3ccnc(C)c3)cn2)o1)C1CCCCC1', 'label 1');

---

target: MMP-13 (Homo sapiens, UniProt P45452)
pIC50: −log10 of the molar value.
// F strictly below 7 in pIC50; T otherwise

INSERT INTO results (molecule, class_label) VALUES
  ('CNC(=O)[C@@H](NC(=O)c1ccc(-c2ccc(Cl)cn2)o1)C1CCCCC1', 'F'),
  ('CNC(=O)[C@@H](NC(=O)c1ccc(-c2ccc(-c3ccc(C(F)(F)F)cc3)cc2)o1)C1CCCCC1', 'F'),
  ('COC[C@H](C)NC(=O)[C@@H](NC(=O)c1ccc(-c2ccc(C#N)cc2)o1)C1CCCCC1', 'F'),
  ('CNC(=O)[C@@H](NC(=O)c1ccc(-c2cccc(CNC(=O)C3CCCCN3)c2)o1)C(C)C (stereo partly drawn)', 'F'),
  ('CNC(=O)[C@@H](NC(=O)c1ccc(-c2cccc(CNC(=O)c3cc(C)c(C)s3)c2)o1)C1CCCCC1', 'T'),
  ('CNC(=O)[C@@H](NC(=O)c1csc(-c2ccc(Cl)cc2)n1)C1CCCCC1', 'F');

---

Reported values: pIC50 for UniProtKB P45452, one per item.
pIC50: −log10 of the molar value.
assay.metric: pIC50

INSERT INTO results (compound, assay_metric, endpoint_result) VALUES
  ('CNC(=O)[C@@H](NC(=O)c1ccc(-c2ccc(NC(=O)c3cn4cc(C(N)=O)ccc4n3)cc2)o1)C1CCCCC1', 'pIC50', 7.62),
  ('CNC(=O)[C@@H](NC(=O)c1ccc(-c2ccc(OCc3ccccc3)cn2)o1)C(C)(C)O', 'pIC50', 7.74),
  ('CC[C@H](C)[C@H](NC(=O)c1csc(-c2ccc(Cl)cc2)n1)C(=O)NC', 'pIC50', 6.42),
  ('Cc1cccc(C(=O)Nc2ccc(-c3ccc(C(=O)N[C@H](C(=O)NC[C@@H](C)O)C4CCCCC4)o3)cc2)n1', 'pIC50', 7.66),
  ('CNC(=O)[C@@H](NC(=O)c1ccc(-c2cccc(CNC(=O)c3ccn(C)n3)c2)o1)C1CCCCC1', 'pIC50', 7.62),
  ('CCc1ccnc(C(=O)NCc2cccc(-c3ccc(C(=O)N[C@H](C(=O)NC)C4CCCCC4)o3)c2)c1', 'pIC50', 7.42),
  ('CNC(=O)[C@@H](NC(=O)c1ccc(-c2cccc(CNC(=O)c3nc4ccccc4[nH]3)c2)o1)C(C)C', 'pIC50', 7.48),
  ('CNC(=O)[C@@H](NC(=O)c1ccc(-c2ccc(NC(=O)c3cn4ccccc4n3)cc2)o1)C1CCCCC1', 'pIC50', 6.96),
  ('CNC(=O)[C@@H](NC(=O)c1ccc(-c2ccc(NC(=O)c3cccc(C)n3)cc2)o1)C1CCCCC1', 'pIC50', 7.77),
  ('CNC(=O)[C@@H](NC(=O)c1ccc(-c2ccc([N+](=O)[O-])cc2)o1)C1CCCCC1', 'pIC50', 6.33),
  ('CNC(=O)[C@@H](NC(=O)c1ccc(-c2ccc(-c3ccc(C)cc3)cn2)o1)C(C)C', 'pIC50', 6.74),
  ('CNC(=O)[C@@H](NC(=O)c1ccc(-c2cccc(CNC(=O)NC(C)(C)C)c2)o1)C1CCCCC1', 'pIC50', 6.98),
  ('CNC(=O)[C@@H](NC(=O)c1ccc(-c2cccc(CNC(=O)c3cccc(Cl)n3)c2)o1)C(C)C', 'pIC50', 8.70),
  ('CNC(=O)[C@@H](NC(=O)c1ccc(-c2cccc(CNC(=O)c3cc(C(F)(F)F)n(C)n3)c2)o1)C(C)C', 'pIC50', 7.41),
  ('CNC(=O)[C@@H](NC(=O)c1ccc(-c2ccc(OCc3cc(C)nc(C)c3)cn2)o1)C1CCCCC1', 'pIC50', 8.70),
  ('CNC(=O)[C@@H](NC(=O)c1ccc(-c2ccc(S(=O)(=O)NC)cc2)o1)C1CCCCC1', 'pIC50', 6.32),
  ('CNC(=O)[C@@H](NC(=O)c1ccc(-c2cccc(CNC(=O)C3CCCCN3C)c2)o1)C(C)C (some centres unmarked)', 'pIC50', 6.52),
  ('CNC(=O)[C@@H](NC(=O)c1ccc(-c2ccc(OCc3cncn3C)cn2)o1)C1CCCCC1', 'pIC50', 7.74),
  ('CNC(=O)[C@@H](NC(=O)c1ccc(-c2ccc([N+](=O)[O-])cn2)o1)C1CCCCC1', 'pIC50', 7.13),
  ('CNC(=O)[C@@H](NC(=O)c1ccc(-c2ccc(NC(=O)c3occc3C)cc2)o1)C1CCCCC1', 'pIC50', 7.03),
  ('CNC(=O)[C@@H](NC(=O)c1ccc(-c2ccc(-c3ccc4[nH]ccc4c3)cn2)o1)C(C)C', 'pIC50', 6.59),
  ('CCOc1ccc(-c2ccc(-c3ccc(C(=O)N[C@H](C(=O)NC)C(C)C)o3)nc2)cc1', 'pIC50', 7.33),
  ('CCOc1ccc(-c2ccc(C(=O)N[C@H](C(=O)NC)C3CCCCC3)o2)nc1', 'pIC50', 7.49),
  ('CNC(=O)[C@@H](NC(=O)c1ccc(-c2cccc(CNC(=O)c3ccnc(C(F)(F)F)n3)c2)o1)C1CCCCC1', 'pIC50', 8.15),
  ('CCc1ccc(-c2ccc(C(=O)N[C@H](C(=O)NC)C3CCCCC3)o2)cc1', 'pIC50', 6.50),
  ('CNC(=O)[C@@H](NC(=O)c1ccc(-c2ccc(NC(=O)c3cn4c(C#N)cccc4n3)cc2)o1)C1CCCCC1', 'pIC50', 6.99),
  ('CNC(=O)[C@@H](NC(=O)c1ccc(-c2cccc(CNC(=O)c3ccc(C)cc3)c2)o1)C(C)C', 'pIC50', 6.76),
  ('CNC(=O)[C@@H](NC(=O)c1ccc(-c2ccc(OCc3ccccc3)cn2)o1)C1CCOCC1', 'pIC50', 8.52),
  ('CNC(=O)[C@@H](NC(=O)c1ccc(-c2cccc(CNC(=O)C3CCCCO3)c2)o1)C(C)C (some centres unmarked)', 'pIC50', 7.00),
  ('CNC(=O)[C@@H](NC(=O)c1ccc(-c2cccc(CNC(=O)C(C)C)c2)o1)C1CCCCC1', 'pIC50', 6.80),
  ('CNC(=O)[C@@H](NC(=O)c1ccc(-c2ccc(-c3ccncc3)cn2)o1)C1CCCCC1', 'pIC50', 7.64),
  ('CNC(=O)[C@@H](NC(=O)c1ccc(-c2ccc(-c3ccc(OC(C)C)cc3)cn2)o1)C(C)C', 'pIC50', 7.54),
  ('CNC(=O)[C@@H](NC(=O)c1ccc(-c2ccc(-c3cnn(C)c3)cc2)o1)C1CCCCC1', 'pIC50', 7.60),
  ('CNC(=O)[C@@H](NC(=O)c1ccc(-c2ccc(O[C@H](C)c3ccncc3)cn2)o1)C1CCCCC1', 'pIC50', 8.52),
  ('NC(=O)COCCNC(=O)[C@@H](NC(=O)c1ccc(-c2ccc(Cl)cc2)o1)C1CCCCC1', 'pIC50', 6.49);

---

pIC50: −log10 of the molar value.
Reported values: pIC50 for MMP-13 (Homo sapiens), one per item.
assay.metric: pIC50

INSERT INTO assay_data (query_smiles, assay_metric, endpoint_result) VALUES
  ('CNC(=O)[C@@H](NC(=O)c1ccc(-c2ccc(NC(=O)c3cc4ccccc4o3)cc2)o1)C1CCCCC1', 'pIC50', 6.30),
  ('CNC(=O)[C@@H](NC(=O)c1ccc(-c2cccc(CNC(=O)c3ccnc(C(F)(F)F)n3)c2)o1)C1CCOCC1', 'pIC50', 8.70),
  ('CNC(=O)[C@@H](NC(=O)c1ccc(-c2cccc(CNC(=O)c3ccc(C)c(C)c3)c2)o1)C(C)C', 'pIC50', 6.81),
  ('CNC(=O)[C@@H](NC(=O)c1ccc(-c2cccc(CNC(=O)C3CCOCC3)c2)o1)C(C)C', 'pIC50', 6.47),
  ('CNC(=O)[C@@H](NC(=O)c1ccc(-c2ccc(-c3cccnc3)cn2)o1)C(C)C', 'pIC50', 6.85),
  ('CCOc1ccc(-c2ccc(C(=O)N[C@H](C(=O)NC)C3CCCCC3)o2)cc1', 'pIC50', 6.57),
  ('CNC(=O)[C@@H](NC(=O)c1ccc(-c2ccc(Cl)cc2)o1)C1CCCC1', 'pIC50', 6.33),
  ('CNC(=O)[C@@H](NC(=O)c1ccc(-c2cccc(CNC(=O)c3ccco3)c2)o1)C1CCCCC1', 'pIC50', 7.12),
  ('CNC(=O)[C@@H](NC(=O)c1ccc(-c2ccc(-c3cccc(F)c3)cn2)o1)C(C)C', 'pIC50', 6.49);
